src = patent US9981916B2

test.system: RORc ligand binding domain (Homo sapiens)
Construct: host or cells: E. coli
assay.overview: In vitro RORc ligand binding assay (25-[3H]hydroxycholesterol displacement, filter binding)
assay.context: 6 nM 25-[3H]hydroxycholesterol, 0.6 ug/mL RORc receptor, 3 h at 25° C.
Give measured pIC50 for each item. Keep answers brief.
One number for each entry, as −log10 of the molar value.

Some compounds with recorded pIC50:
CCc1nnc([C@@]23CC[C@@H](c4cc(-c5c(F)cccc5F)nnc42)C3(C)C)s1; 6.93
CC1(C)[C@@H]2CC[C@@]1(C(=O)N1CC(O)C1)c1nnc(-c3c(F)cccc3F)cc12; 7.01
CC1(C)[C@@H]2CC[C@@]1(C(=O)N1CC3COCC3C1)c1nnc(-c3c(F)cccc3F)cc12 (stereo partly shown); 6.84

Attention now shifts to the item below.
Sample Cc1nnc(C[C@@]23CC[C@@H](c4cc(-c5c(F)cccc5F)nnc42)C3(C)C)o1 ; pIC50 observed: 6.88

* * *

test.system: RORc ligand binding domain (Homo sapiens, UniProt P51449)
Sequence (P51449 269-508 limits assumed): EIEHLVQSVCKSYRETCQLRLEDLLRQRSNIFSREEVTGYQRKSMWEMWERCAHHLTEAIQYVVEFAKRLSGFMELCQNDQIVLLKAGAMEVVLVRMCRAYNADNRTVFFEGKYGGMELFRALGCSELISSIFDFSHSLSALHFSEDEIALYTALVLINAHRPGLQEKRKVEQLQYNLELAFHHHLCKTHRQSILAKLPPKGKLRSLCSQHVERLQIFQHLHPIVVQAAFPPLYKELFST
Give measured pIC50 for each item. Keep answers brief.
One number for each entry, as −log10 of the molar value.

Some compounds with recorded pIC50:
CCN(C[C@@]12CC[C@@H](c3cc(-c4c(F)cccc4F)nnc31)C2(C)C)c1nnc(C)o1; 7.72
CC1(C)[C@@H]2CC[C@@]1(C(=O)N1CCC[C@@H]1CO)c1nnc(-c3c(F)cccc3F)cc12; 6.22

Attention now shifts to the item below.
Sample CCN(C[C@]12CC[C@H](c3cc(-c4c(F)cccc4F)nnc31)C2(C)C)C(=O)CCNC(N)=O ; pIC50 observed: 7.49

* * *

Below are IC50 values measured for RORc ligand binding domain (Homo sapiens, UniProt P51449).
One number for each entry, in µM.

Cc1coc([C@@]23CC[C@@H](c4cc(-c5c(F)cccc5F)nnc42)C3(C)C)n1; 0.096

Record IC50 per entry; entries follow.
1. Cc1ccnc(C2CN(C(=O)[C@@]34CC[C@@H](c5cc(-c6ccccc6F)nnc53)C4(C)C)C2)n1
2. CC1(C)[C@@H]2CC[C@@]1(COCc1ccc(C(=O)O)cc1)c1nnc(-c3ccccc3F)cc12
3. CN(C)[C@@]12CC[C@@H](c3cc(-c4ccccc4F)nnc31)C2(C)C
4. CC(C)(C)OC(=O)NCCC1CN(C(=O)[C@]23CC[C@H](c4cc(-c5c(F)cccc5F)nnc42)C3(C)C)C1
5. CC1(C)[C@H]2CC[C@]1(C(=O)N1CC(O)C1)c1nnc(-c3c(F)cccc3F)cc12
6. CNC(=O)[C@]12CC[C@H](c3cc(-c4ccccc4F)nnc31)C2(C)C
7. CC1(C)[C@@H]2CC[C@@]1(C(=O)Nc1ccccc1S(C)(=O)=O)c1nnc(-c3ccccc3F)cc12
8. CC1(C)[C@H]2CC[C@]1(C(=O)N1CC(c3cc[nH]n3)C1)c1nnc(-c3ccccc3F)cc12

Result:
1: 2.75; 2: 0.284; 3: 0.192; 4: 2.97; 5: 0.461; 6: 2.1; 7: 1.79; 8: 3
